assay: chemical genetic growth profiling, strain panel (AID 1159580);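 note: tested at 20 µM; growth read once vehicle control cultures reached saturation at 30 °C; 1 = growth at the plate median or of vehicle wells; lower values mean less growth of the strain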; conditions: S. cerevisiae deletion strains, growth OD, locus YHR200W, strain rpn10, active compounds read low
Screen size: about 5,500 compounds; about 2,000 (36%) were called active. Roughly 18% stayed inconclusive and do not appear here. The list shows a part of the results.
API: label(entry) gives Condition met if the entry's normalized growth is strictly smaller than 1; on equality or larger values it gives Condition not met.

Sample answers from the record:
Request: Is it true that normalized growth reported for COc1ccc(/C=C/c2cc(O)cc(O)c2)cc1 is less than 1?
Response: Condition met

Request: Another compound: COc1ccccc1-c1cc(=O)c2cccc(OC)c2o1
Response: Condition met

Request: Another compound: CC1(C)CC2C1CCC1(C)OC2(C)CCC1O (stereo not drawn)
Response: Condition not met

We now examine a further compound.
Request: Is it true that normalized growth reported for COc1ccc(/C=C/c2cc(O)cc(O[C@@H]3O[C@H](CO)[C@@H](O)[C@H](O)[C@H]3O)c2)cc1O is less than 1?
Response: Condition not met

====

experiment: chemical genetic growth profiling, strain panel (AID 1159580); conditions: S. cerevisiae deletion strains, growth OD, locus YNL271C, strain bni1, active compounds read low
About 2,000 (36%) of roughly 5,500 compounds were called active. Not shown: some 18% with an inconclusive outcome. This is one part of the list.
Entries annotated with measured normalized growth
Just the number, please.

A selection of reference data follows.
Request: Dear colleague, I am looking for the recorded normalized growth of the following molecule: CC1=C(/C=C/C(C)=C/C=C/C(C)=C/CO)C(C)(C)CCC1
Response: 1.01

Request: Another molecule: CN(C)CCCO[C@H]1[C@@H](C(O)CO)OC2OC(C)(C)O[C@@H]21 (some centres not stated)
Response: 0.983

Request: Another molecule: Nc1nccs1
Response: 0.978

Would you kindly look at the next entry?
Request: Dear colleague, I am looking for the recorded normalized growth of the following molecule: COc1cc2c3cc1Oc1cc(ccc1O)OC1c4c(cc(OC)c(O)c4Oc4ccc(cc4)CC3N(C)CC2)CCN1C (configuration not stated)
Response: 0.993

====

Entries annotated with measured normalized growth
assay: chemical genetic growth profiling, strain panel (AID 1159580); conditions: S. cerevisiae deletion strains, growth OD, locus YDL101C, strain DUN1, active compounds read low
Among all 5,500 compounds or so, about 2,000 (36%) were called active. Not shown: some 18% with an inconclusive outcome. The list shows a part of the results.
Just the number, please.

A selection of reference data follows.
Request: Dear colleague, I am looking for the recorded normalized growth of the following compound: O=C1c2cccc3c(SCCO)ccc(c23)C(=O)N1CCc1ccccn1
Response: 1.09

Request: Another compound: O=c1cccc2n1C[C@H]1CNCC2C1
Response: 1.01

New cases:
Request: Dear colleague, I am looking for the recorded normalized growth of the following compound: O=C(CC(Nc1ccccc1)c1ccccc1)C1CC1 (stereo not drawn)
Response: 0.988

====

assay: chemical genetic growth profiling, strain panel (AID 1159580); conditions: S. cerevisiae deletion strains, growth OD, locus YFL029C, strain CAK1, active compounds read low
In all, about 5,500 compounds went through this assay and about 2,000 (36%) were called active. Roughly 18% stayed inconclusive and do not appear here. The list shows a part of the results.
measure.name: normalized growth

Request: Dear colleague, I am looking for the recorded normalized growth of the following compound: CCOC(=O)NC(=S)NC12CC3CC(CC(C3)C1)C2
Response: 0.974 (inactive)

Request: Another compound: OC(c1ccc(C(F)(F)F)cc1)c1cccc(C(F)(F)F)c1 (stereo unspecified)
Response: 0.962 (inactive)

Request: Another compound: Cc1cc(C(=O)O/N=C(/N)c2ccc([N+](=O)[O-])o2)no1
Response: 0.965 (inactive)

Request: Another compound: CC(=O)C(Sc1nc2ccccc2s1)C(C)=O
Response: 0.9 (inactive)

Request: Another compound: CC12CC[C@@H](O)CC1=CC[C@@H]1C2CCC2(C)C(=O)CC[C@@H]12 (stereo partly specified)
Response: 1.01 (inactive)

Request: Another compound: Cc1cc(C(=O)O/N=C(/N)c2ccc(C(C)(C)C)cc2)no1
Response: 0.969 (inactive)

Request: Another compound: O=C(NCc1ccco1)c1csc(C2COc3ccccc3O2)n1 (stereo unspecified)
Response: 0.915 (inactive)

====

Entries annotated with measured normalized growth
test: chemical genetic growth profiling, strain panel (AID 1159580);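 note: tested at 20 µM; growth read once vehicle control cultures reached saturation at 30 °C; 1 = growth at the plate median or of vehicle wells; lower values mean less growth of the strain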; conditions: S. cerevisiae deletion strains, growth OD, locus YPR141C, strain kar3, active compounds read low
Screen size: about 5,500 compounds; about 2,000 (36%) were called active. Inconclusive results (about 18%) are left out. This is one part of the list.
Just the number, please.

Request: Dear colleague, I am looking for the recorded normalized growth of the following compound: COc1cc(C)c2c(c1C=O)Oc1c(c(C)c(O)c3c1C(O)OC3=O)OC2=O (stereo unspecified)
Response: 0.979

Request: Another compound: CC(=O)N[C@@H]1[C@@H](C(O)[C@H](O)CO)O[C@](O)(C(=O)O)C[C@@H]1O (stereo partly specified)
Response: 0.999

New cases:
Request: Dear colleague, I am looking for the recorded normalized growth of the following compound: CC(=O)O[C@H]1C[C@@H](OC(C)=O)C(C)(C)C2C[C@@H](OC(C)=O)[C@]3(C)C(CC[C@@]4(C)[C@H](c5ccoc5)C(=O)[C@H]5O[C@]543)[C@]21C (stereo partly specified)
Response: 1.03

Request: Another compound: Oc1ccc(/C=C/c2cc(O)cc(O)c2)cc1
Response: 0.973

Request: Another compound: CCOC(=O)c1ccc(N)cc1
Response: 0.999

Request: Another compound: CC1CC2C(C(O)CC3(C)C2CCC3(O)C(=O)COC(=O)CCC(=O)O)C2(C)C=CC(=O)C=C12 (stereo unspecified)
Response: 0.972

Request: Another compound: O=C(O)c1cc(=O)c(O)c2c(O)c(O)ccc2c1
Response: 1.01

Request: Another compound: CCOC(N)=O
Response: 1.01

Request: Another compound: O=C(/C=C/c1ccc(O)c(O)c1)O[C@@H]1C[C@](O)(C(=O)O)C[C@@H](O)[C@H]1O
Response: 1.01

Request: Another compound: O=C(O)c1cc(O)c(O)c(O)c1
Response: 1.02

Request: Another compound: OC/C=C/c1ccc(O)c(O)c1
Response: 0.938

====

test: chemical genetic growth profiling, strain panel (AID 1159580);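 note: tested at 20 µM; growth read once vehicle control cultures reached saturation at 30 °C; 1 = growth at the plate median or of vehicle wells; lower values mean less growth of the strain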; details: S. cerevisiae deletion strains, growth OD, locus YIL125W, strain kgd1
Among all 5,500 compounds or so, about 2,000 (36%) were called active. Inconclusive results (about 18%) are left out. Rule as the data show it: active = normalized growth mostly below about 0.91 (no sharp cut-off); inconclusive = no clear call, values can overlap the other calls; inactive = mostly above about 0.92. The list shows a part of the results.
Your response should consist of one outcome taken from 1 for active, -1 for inactive

Sample answers from the record:
Request: Which outcome did this test record for the compound S=c1[nH]c2ccccc2s1 ?
Response: -1

Request: Another compound: COc1ccc(C[C@H](N)C(=O)N[C@@H]2[C@@H](CO)OC(n3cnc4c(N(C)C)ncnc43)[C@@H]2O)cc1 (stereo partly drawn)
Response: -1

Request: Another compound: COc1ccc(-c2cc(C(F)F)nn2-c2ccc(S(N)(=O)=O)cc2)cc1F
Response: -1

Request: Another compound: CS(=O)(=O)OCCCCOS(C)(=O)=O
Response: -1

Request: Another compound: CN(C)CCCO[C@H]1[C@@H](C(O)CO)OC2OC(C)(C)O[C@@H]21 (stereo partly drawn)
Response: -1

We now examine a further compound.
Request: Which outcome did this test record for the compound c1ccc2[nH]c(-c3cscn3)nc2c1 ?
Response: -1

====

test: chemical genetic growth profiling, strain panel (AID 1159580);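 note: tested at 20 µM; growth read once vehicle control cultures reached saturation at 30 °C; 1 = growth at the plate median or of vehicle wells; lower values mean less growth of the strain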; settings: S. cerevisiae deletion strains, growth OD, locus YDL005C, strain med2, active compounds read low
The whole screen tested about 5,500 compounds, of which about 2,000 (36%) were called active. About 18% were inconclusive and are not listed. The list shows a part of the results.
measure.name: normalized growth
Just the number, please.

Request: Dear colleague, I am looking for the recorded normalized growth of the following compound: CCn1cc(C(=O)O)c(=O)c2ccc(C)nc21
Response: 0.983

Request: Another compound: O=C(O)c1cc(=O)c2c(OCC(O)COc3cccc4oc(C(=O)O)cc(=O)c34)cccc2o1
Response: 0.974

Request: Another compound: C[C@@H]1CC2C3CCC4=CC(=O)C=C[C@]4(C)[C@@]3(F)[C@@H](O)C[C@]2(C)[C@@]1(O)C(=O)COP(=O)(O)O (some centres not stated)
Response: 0.987

Request: Another compound: CC12CCC3C(CC=C4CC(O)CCC43C)C1CCC2=O (configuration not stated)
Response: 0.995

New cases:
Request: Dear colleague, I am looking for the recorded normalized growth of the following compound: CC1(C)C2CC(=O)O[C@@]3(C)C4=CC(=O)O[C@@H](c5ccoc5)[C@]4(C)CCC3[C@@]2(C)C=C[C@H]1O (some centres not stated)
Response: 0.975

Request: Another compound: S=c1[nH]c2ccccc2s1
Response: 0.996

Request: Another compound: C[C@](N)(Cc1ccc(O)c(O)c1)C(=O)O
Response: 0.991

Request: Another compound: Oc1ccc(/C=C/c2cc(O)cc(O)c2)cc1
Response: 0.999

Request: Another compound: CC(Cc1ccc(O)c(O)c1)(NN)C(=O)O (configuration not stated)
Response: 1

Request: Another compound: O=C(/C=C/c1ccc(O)c(O)c1)O[C@@H]1C[C@](O)(C(=O)O)C[C@@H](O)[C@H]1O
Response: 0.966

Request: Another compound: CCCCC(CC)CN=C(N)NC(N)=NCCCCCCN=C(N)NC(N)=NCC(CC)CCCC (configuration not stated)
Response: 0.0747

Request: Another compound: O=C(O)CCC(=O)c1ccc(-c2ccccc2)cc1
Response: 0.991

All figures here come from PubChem BioAssay AID1159580.
